test system: NOMO1; test: cell viability relative to DMSO control; higher = less cytotoxic; details: RPMI 5 mM glucose + 10% FBS; 48 h; 0.000781 µM
Below: a set of entries, each annotated with reported cell viability.
Field: numeric (%). Do not append units.

- MOLECULE: "CCNC(=O)C[C@@H]1\\N=C(C2=CC=C(Cl)C=C2)/C3=C(C=CC(=C3)OC)[N]4C(=NN=C14)C"
  cell viability (%): 108

Below: the item to evaluate.
Asked: Which cell viability reading was recorded for the molecule CNC(=O)[C@H](Cc1ccccc1)NC(=O)[C@H](CC(C)C)[C@H](CSc1cccs1)C(=O)NO ?
Given back: 85.6

----------
test system: P12-Ichikawa; experiment: cell viability relative to DMSO control; higher = less cytotoxic; conditions: HPLM + 10% dialyzed FBS; 48 h; 46.1 µM
Listed molecules paired with reported cell viability
I only need the number, in %, no unit after it.

Example molecules with recorded cell viability:
- MOLECULE: "COC(=O)N1CCN(Cc2cccc(NC(=O)Nc3ccc(C)nc3)c2F)CC1"
  OBSERVED MEASUREMENT: 84.8
- MOLECULE: "CN(C)CCOC(c1ccccc1)c1ccccc1"
  OBSERVED MEASUREMENT: 82.8
- MOLECULE: "CC/1=C/N([C@@H]2C[C@@H](O)[C@H](CO)O2)C(=O)NC1=O"
  OBSERVED MEASUREMENT: 8.14
- MOLECULE: "O=C1NC(=O)[C@@H](c2cn3c4c(cccc24)CCC3)[C@@H]1c1c[nH]c2ccccc12"
  OBSERVED MEASUREMENT: 18.5
- MOLECULE: "CN(C)Cc1ccc(-c2nc3cccc4c3n2CCNC4=O)cc1"
  OBSERVED MEASUREMENT: 110

Asked: Consider the molecule COc1cc2nccc(Oc3ccc(NC(=O)C4(C(=O)Nc5ccc(F)cc5)CC4)cc3)c2cc1OC and give its measured cell viability.
Given back: 34

Asked: Next up: CCOC(=O)C/1=C(C)/NC(=S)NC1C2=CC=CC(=C2)O (centres undefined)
Given back: 5.13

Asked: Would you kindly repeat that for O=C(O)c1ccc2cc(-c3ccc(O)c(C45CC6CC(CC(C6)C4)C5)c3)ccc2c1 ?
Given back: 7.25

Asked: For CNC(=O)c1ccc(Nc2ncc(C(F)(F)F)c(NCc3nccnc3N(C)[S+](C)(=O)[O-])n2)cc1 then?
Given back: 102

----------
test system: NOMO1; experiment: cell viability relative to DMSO control; higher = less cytotoxic; conditions: RPMI 5 mM glucose + 10% dialyzed FBS; 48 h; 46.1 µM
Quick reference: cell viability of the listed items.
Write down the numeric answer in % and omit the unit.

Illustrative cases are given below, each with its answer.
- SAMPLE SMILES: "COC[C@H](NC(=O)c1cnc(C)s1)C(=O)N[C@@H](COC)C(=O)N[C@@H](Cc1ccccc1)C(=O)[C@@]1(C)CO1"
  cell viability (%): 1.62
- SAMPLE SMILES: "O=C1c2c(O)cccc2[C@H]([C@@H]2O[C@H](CO)[C@@H](O)[C@H](O)[C@H]2O)c2cc(CO)cc(O)c21"
  cell viability (%): 94.6
- SAMPLE SMILES: "C=C(C)[C@@H]1CC[C@]2(C)CC[C@]3(C)[C@H](CC[C@@H]4[C@@]5(C)CC[C@H](O)C(C)(C)[C@@H]5CC[C@]43C)[C@@H]12"
  cell viability (%): 115
- SAMPLE SMILES: "CCOC(=O)Nc1ccc(NCc2ccc(F)cc2)cc1N"
  cell viability (%): 33.9
- SAMPLE SMILES: "C#Cc1cccc(Nc2ncnc3cc(OCCOC)c(OCCO)cc23)c1"
  cell viability (%): 41.7
- SAMPLE SMILES: "CC1(C)[C@@H](O[C@H]2O[C@H](C(=O)O)[C@@H](O)[C@H](O)[C@H]2O[C@@H]2O[C@H](C(=O)O)[C@@H](O)[C@H](O)[C@H]2O)CC[C@]2(C)[C@H]3C(=O)C=C4[C@@H]5C[C@@](C)(C(=O)O)CC[C@]5(C)CC[C@@]4(C)[C@]3(C)CC[C@@H]12"
  cell viability (%): 161

Okay, next one:
Asked: Fill in the recorded cell viability for this molecule, with NOMO1 as test system: OC[C@H]1O[C@@H](Oc2ccc(O)cc2)[C@H](O)[C@@H](O)[C@@H]1O
Given back: 93.4

----------
Listing: AUC of viability dose-response curve of selected compounds
tested on: NOMO1; assay: AUC of viability dose-response curve (% viability x log10 dose units); higher = less sensitive; conditions: HPLM + 10% dialyzed FBS; 48 h
Keep it simple and answer with nothing but the number.

Examples from the recorded data:
- COMPOUND: "CCN1CCCC1CNC(=O)c1cc(S(=O)(=O)CC)c(N)cc1OC (stereo not given)"
  TESTED TARGET: "NOMO1"
  AUC of viability dose-response curve: 458
- COMPOUND: "Fc1ccc(C(c2ccc(F)cc2)N2CCN(C/C=C/c3ccccc3)CC2)cc1"
  TESTED TARGET: "NOMO1"
  AUC of viability dose-response curve: 432
- COMPOUND: "COc1cc(N2CCC(C(N)=O)CC2)ccc1Nc1nc(N)c(Cl)c(Nc2ccccc2[S+](=O)([O-])C(C)C)n1"
  TESTED TARGET: "NOMO1"
  AUC of viability dose-response curve: 381
- COMPOUND: "COc1cc(C(C)C)c(Oc2cnc(NC(CO)CO)nc2N)cc1I"
  TESTED TARGET: "NOMO1"
  AUC of viability dose-response curve: 468
- COMPOUND: "CC(=O)N1CCN(c2ccc(OCc3nn(C)c(C)c3-c3cccc4c(CCCOc5cc(C)c(Cl)c(C)c5)c(C(=O)O)n(Cc5cccnc5)c34)cc2)CC1"
  TESTED TARGET: "NOMO1"
  AUC of viability dose-response curve: 469
- COMPOUND: "Clc1cccc(-c2nnnn2Cc2cccnc2)c1Cl"
  TESTED TARGET: "NOMO1"
  AUC of viability dose-response curve: 362
- COMPOUND: "CNC(=O)c1ccccc1Nc1nc(Nc2ccc(N3CCOCC3)cc2OC)ncc1Cl"
  TESTED TARGET: "NOMO1"
  AUC of viability dose-response curve: 387
- COMPOUND: "COCCOC(=O)C/1=C(C)/NC/2=C(C1C3=CC=CC(=C3)O)/C(=O)CC(C2)C4=C(OC)C=CC=C4 (stereo not given)"
  TESTED TARGET: "NOMO1"
  AUC of viability dose-response curve: 454
- COMPOUND: "C1Cc2[nH]nc(-c3nn[nH]n3)c2C1"
  TESTED TARGET: "NOMO1"
  AUC of viability dose-response curve: 460

Now, please, on to the next compound.
Asked: Bench note: what AUC of viability dose-response curve did NC/1=N/C(=O)N/C=C1F show?
Given back: 417

----------
system: NOMO1; assay: cell viability relative to DMSO control; higher = less cytotoxic; settings: RPMI 5 mM glucose + 10% FBS; 48 h; 15.4 µM
# cell viability listing for each entry below
API: value field is a number in %; no unit string.

Worked cases, answers included:
- COMPOUND: "COc1nc(-c2ccc3c(c2)OCO3)n(-c2ccc(NC(=O)CSc3ccccc3)cc2)n1"
  TESTED TARGET: "NOMO1"
  OBSERVED MEASUREMENT: 89.1
- COMPOUND: "Cc1nc(Nc2ncc(C(=O)Nc3c(C)cccc3Cl)s2)cc(N2CCN(CCO)CC2)n1"
  TESTED TARGET: "NOMO1"
  OBSERVED MEASUREMENT: 89.3
- COMPOUND: "CC(C)(C)/[N+]([O-])=C/c1ccc([S+](=O)([O-])[O][Na])cc1[S+](=O)([O-])[O][Na]"
  TESTED TARGET: "NOMO1"
  OBSERVED MEASUREMENT: 138
- COMPOUND: "OCc1ccccc1O[C@@H]1O[C@H](CO)[C@@H](O)[C@H](O)[C@H]1O"
  TESTED TARGET: "NOMO1"
  OBSERVED MEASUREMENT: 106

Asked: Item CCOC(=O)C/1=C(C)/NC(=S)NC1C2=CC=CC(=C2)O (stereo not drawn) has what recorded cell viability?
Given back: 22.3

Asked: For C#Cc1cccc(Nc2ncnc3cc(OCCOC)c(OCCO)cc23)c1 then?
Given back: 93.2

Asked: And then C[C@H](NC(=O)C(=O)Nc1ccccc1C(C)(C)C)C(=O)N[C@@H](CC(=O)O)C(=O)COc1c(F)c(F)cc(F)c1F , what is it?
Given back: 89.1

Asked: Try this compound next: C[C@@H](c1ncncc1F)[C@](O)(Cn1cncn1)c1ccc(F)cc1F
Given back: 91.1

Just for reference, the supplement of paper PMC11451515 is where these values come from.
